Below, each of the compounds is paired with its reported inhibition at 3.3 µM value.
- MEASURED_ON: HIV-1 protease (Human immunodeficiency virus type 1 group M subtype B, UniProt P04585)
- ASSAY_PROTOCOL: biochemical
- MEASUREMENT_PARAMETERS: read-out: HIV-1 Protease % Inhib, dose 3.300 uM
RESULT_TYPE: inhibition at 3.3 µM (%)

INSERT INTO results (compound, measured_on, result_type, readout_unit, meas_value) VALUES
  ('O=c1oc2c(c(O)c1C(c1ccccc1)C1CC1)CCCCCC2CC1CO1 (stereo not shown)', 'HIV-1 protease (Human immunodeficiency virus type 1 group M subtype B, UniProt P04585)', 'inhibition at 3.3 µM', '%', 98.6),
  ('CCCC(c1cccc(NS(=O)(=O)c2ccc(C#N)cc2)c1)c1c(O)c2c(oc1=O)CCCCCC2 (single isomer, unassigned) [Example 437]', 'HIV-1 protease (Human immunodeficiency virus type 1 group M subtype B, UniProt P04585)', 'inhibition at 3.3 µM', '%', 108),
  ('O=c1oc2c(c(O)c1C(c1cccc(NS(=O)(=O)c3ccc(O)cc3)c1)C1CC1)CCCCCC2 (stereo not shown)', 'HIV-1 protease (Human immunodeficiency virus type 1 group M subtype B, UniProt P04585)', 'inhibition at 3.3 µM', '%', 98.1),
  ('CC(C)c1ccc(S(=O)(=O)Nc2cccc(C(c3c(O)c4c(oc3=O)CCCCCC4)C3CC3)c2)cc1 (stereo not shown)', 'HIV-1 protease (Human immunodeficiency virus type 1 group M subtype B, UniProt P04585)', 'inhibition at 3.3 µM', '%', 101);

---

Item-by-item account of inhibition at 1.1 µM
- MEASURED_ON: HIV-1 protease (Human immunodeficiency virus type 1 group M subtype B, UniProt P04585)
- ASSAY_PROTOCOL: biochemical
- MEASUREMENT_PARAMETERS: read-out: HIV-1 Protease % Inhib, dose 1.100 uM
RESULT_TYPE: inhibition at 1.1 µM (%)

INSERT INTO measurements (molecule, measured_on, readout_unit, meas_value) VALUES
  ('COCC1CCCCCc2c1oc(=O)c(C(c1ccccc1)C1CC1)c2O (centres unmarked) [Example 177]', 'HIV-1 protease (Human immunodeficiency virus type 1 group M subtype B, UniProt P04585)', '%', 53.9),
  ('O=c1oc2c(c(O)c1C(c1cccc(NS(=O)(=O)c3cccc(NO)c3)c1)C1CC1)CCCCCC2 (centres unmarked) [Example 353 (Second Title Compound)]', 'HIV-1 protease (Human immunodeficiency virus type 1 group M subtype B, UniProt P04585)', '%', 103),
  ('CCCOc1ccc2c(O)c(C(CC)c3ccccc3)c(=O)oc2c1 (centres unmarked) [Example 169]', 'HIV-1 protease (Human immunodeficiency virus type 1 group M subtype B, UniProt P04585)', '%', 13.1),
  ('CCCC1CCCCCc2c1oc(=O)c([C@@H](c1ccccc1)C1CC1)c2O (mixture of isomers) [Example 232]', 'HIV-1 protease (Human immunodeficiency virus type 1 group M subtype B, UniProt P04585)', '%', 80.4),
  ('O=c1oc2c(c(O)c1C(c1cccc(NS(=O)(=O)c3cccc(S(=O)(=O)N(Cc4ccccc4)Cc4ccccc4)c3)c1)C1CC1)CCCCCC2 (centres unmarked) [Example 413]', 'HIV-1 protease (Human immunodeficiency virus type 1 group M subtype B, UniProt P04585)', '%', 43.1),
  ('O=c1oc2c(c(O)c1C(c1cccc(NS(=O)(=O)c3cccnc3)c1)C1CC1)CCCCCC2 (centres unmarked) [Example 314]', 'HIV-1 protease (Human immunodeficiency virus type 1 group M subtype B, UniProt P04585)', '%', 108),
  ('O=c1oc2c(c(O)c1[C@H](c1cccc(NS(=O)(=O)c3ccc(F)cc3)c1)C1CC1)CCCCCC2 [Example 252]', 'HIV-1 protease (Human immunodeficiency virus type 1 group M subtype B, UniProt P04585)', '%', 111),
  ('O=C(CCn1ccc2ccccc21)Nc1cccc(C(c2c(O)c3c(oc2=O)CCCCC3)C2CC2)c1 (centres unmarked) [Example 215]', 'HIV-1 protease (Human immunodeficiency virus type 1 group M subtype B, UniProt P04585)', '%', 76.1);

---

- MEASURED_ON: HIV-1 protease (Human immunodeficiency virus type 1 group M subtype B)
- ASSAY_PROTOCOL: biochemical
- MEASUREMENT_PARAMETERS: read-out: HIV-1 Protease % Inhib, dose 10.000 uM
RESULT_TYPE: inhibition at 10 µM (%)

INSERT INTO measurements (molecule, readout_unit, qualifier_sign, meas_value) VALUES
  ('CCCC(c1ccc(CC)cc1)c1c(O)c2ccccc2oc1=O (centres unmarked) [Example 19]', '%', '=', 36.8),
  ('O=c1oc2ccccc2c(O)c1C(CCc1ccccc1)Cc1ccccc1 (centres unmarked) [Example 145]', '%', '=', 81),
  ('CCCC(c1ccc(C)cc1)c1c(O)c2ccccc2oc1=O (centres unmarked) [Example 18]', '%', '=', 52.5),
  ('O=c1oc2c(c(O)c1C(c1cccc(NS(=O)(=O)c3cccc(NCCO)c3)c1)C1CC1)CCCCCC2 (centres unmarked) [Example 355 (First Title Compound)]', '%', '=', 72.6),
  ('O=c1oc2c(c(O)c1C(c1cccc(NS(=O)(=O)CCCI)c1)C1CC1)CCCCCC2 (centres unmarked) [Example 365C]', '%', '=', 87.5),
  ('O=C(CCn1ccc2ccccc21)Nc1cccc(C(c2c(O)c3c(oc2=O)CCCCC3)C2CC2)c1 (centres unmarked) [Example 215]', '%', '=', 107),
  ('CC(c1cccc(C(=O)NCC(=O)OC(C)(C)C)c1)c1c(O)c2ccccc2oc1=O (centres unmarked) [Example 22]', '%', '<', 10),
  ('CC(C)(C)OC(=O)N[C@H](Cc1c[nH]cn1)C(=O)Nc1cccc(C(c2c(O)c3c(oc2=O)CCCCCC3)C2CC2)c1 (some centres unmarked) [Example 204]', '%', '=', 117),
  ('CC(c1cccc(C(=O)NC2c3ccccc3CC2O)c1)c1c(O)c2ccccc2oc1=O (centres unmarked) [Example 29]', '%', '=', 54.2),
  ('CCCCC(c1cccc(NS(=O)(=O)c2ccc(C#N)cc2)c1)c1c(O)c2c(oc1=O)CCCCCC2 (centres unmarked) [Example 421]', '%', '=', 108),
  ('CCC(c1cccc(NC(=O)CCc2cccc3ccccc23)c1)c1c(O)c2ccccc2oc1=O (centres unmarked) [Example 64]', '%', '=', 78.1),
  ('O=C(CCn1ccc2ccccc21)Nc1cccc(C(c2c(O)c3c(oc2=O)CCCCCC3)C2CC2)c1 (centres unmarked) [Example 197]', '%', '=', 91.8),
  ('O=c1oc2c(c(O)c1C(c1cccc(NS(=O)(=O)c3ccc(F)cc3)c1)C1CC1)CCCCCC2 (centres unmarked) [Example 268]', '%', '=', 101),
  ('O=c1oc2c(c(O)c1C(c1cccc(NS(=O)(=O)c3ccc(I)cc3)c1)C1CC1)CCCCCC2 (centres unmarked) [Example 300]', '%', '=', 108),
  ('O=c1oc2c(c(O)c1C(c1cccc(NS(=O)(=O)c3cccc([N+](=O)[O-])c3)c1)C1CC1)CCCCCC2 (centres unmarked) [Example 274]', '%', '=', 103),
  ('O=c1oc2c(c(O)c1C(c1cccc(NS(=O)(=O)Nc3ccccc3)c1)C1CC1)CCCCCC2 (centres unmarked) [Example 397]', '%', '=', 116),
  ('CCC(c1cccc(OCC(O)CO)c1)c1c(O)c2ccccc2oc1=O (centres unmarked) [Example 68]', '%', '<', 10),
  ('O=c1oc2c(c(O)c1C(c1cccc(NS(=O)(=O)c3ccc([N+](=O)[O-])cc3)c1)C1CC1)CCCCCC2 (centres unmarked) [Example 273]', '%', '=', 102),
  ('Cc1ccc(S(=O)(=O)Nc2cccc(C(c3c(O)c4c(oc3=O)CCCCCC4)C3CC3)c2)cc1 (centres unmarked) [Example 325]', '%', '=', 115),
  ('CCCC1CCCCCc2c1oc(=O)c([C@H](c1ccccc1)C1CC1)c2O (mixture of isomers) [Example 235]', '%', '=', 103),
  ('CCC(c1cccc(NS(=O)(=O)c2ccc(C#N)cc2)c1)c1c(O)c2c(oc1=O)CCCCCC2 (centres unmarked) [Example 222]', '%', '=', 111),
  ('CCC(c1cccc(NC(=O)c2ccccn2)c1)c1c(O)c2ccccc2oc1=O (centres unmarked) [Example 45]', '%', '=', 28.5),
  ('O=c1oc2c(c(O)c1C(c1cccc(NS(=O)(=O)c3ccc(Br)cc3)c1)C1CC1)CCCCCC2 (centres unmarked) [Example 272]', '%', '=', 101),
  ('O=C(Nc1cccc(C(c2c(O)c3c(oc2=O)CCCCCC3)C2CC2)c1)c1ccc(F)cc1 (centres unmarked) [Example 210]', '%', '=', 88.8),
  ('O=c1oc2c(c(O)c1C(c1cccc(NS(=O)(=O)c3cccc4ccccc34)c1)C1CC1)CCCCCC2 (centres unmarked) [Example 270]', '%', '=', 116),
  ('CCC(c1ccccc1)c1c(O)c2ccc(OCCOCCOCCOC)cc2oc1=O (centres unmarked) [Example 154]', '%', '=', 77.1),
  ('O=c1oc2c(c(O)c1C(c1cccc(NS(=O)(=O)c3ccc(OC(F)(F)F)cc3)c1)C1CC1)CCCCCC2 (centres unmarked) [Example 312]', '%', '=', 114),
  ('CCCCS(=O)(=O)Nc1cccc(C(c2c(O)c3c(oc2=O)CCCCCC3)C2CC2)c1 (centres unmarked) [Example 326]', '%', '=', 114),
  ('O=C(O)c1ccc(S(=O)(=O)Nc2cccc(C(c3c(O)c4c(oc3=O)CCCCCC4)C3CC3)c2)cc1 (centres unmarked) [Example 276]', '%', '=', 112),
  ('CCCC1CCCCCc2c1oc(=O)c(C(c1ccccc1)C1CC1)c2O (centres unmarked) [Example 128]', '%', '=', 107),
  ('O=C(CO)Nc1cccc(S(=O)(=O)Nc2cccc(C(c3c(O)c4c(oc3=O)CCCCCC4)C3CC3)c2)c1 (centres unmarked) [Example 409]', '%', '=', 101),
  ('C=CCOc1ccccc1C(CC)c1c(O)c2ccccc2oc1=O (centres unmarked) [Example 69]', '%', '=', 20.6);
